Test: Plasma pharmacokinetics of SF1126 and hydrolysis products SF1101 and SF1174
Type: in vivo, human
Conditions: human, in vivo, iv
recorded_endpoint: half-life

[[record]]
molecule = "O=c1cc(N2CCOCC2)oc2c(-c3ccccc3)cccc12 [SF1101, reference compound]"
experimental_result = "1 to 2.4 h"

